Reference for the values: ChEMBL document CHEMBL5360625

test: AUC (0 to t) in Sprague-Dawley rat at 8 mg/kg, iv measured upto 48 hrs by LC-MS/MS analysis; assay type: ADME, organism-based; parameters: dose 8 mg/kg, time < 48 hrs, route iv; details: in vivo
This section presents compounds with their documented AUC(0-t) at 48 h values.
Answer in ng·h/mL, number only, no unit symbol.

N#Cc1cccc(COc2cc(OCc3cccc(-c4ccccc4F)c3Cl)ccc2CNCC(=O)O)c1 | 1370

Record summary for N#Cc1cncc(COc2cc(OCc3cccc(-c4ccccc4F)c3Cl)ccc2CNCCO)c1 : reported AUC(0-t) at 48 h = 11500

###

This section presents compounds with their documented Tmax values.
test: Tmax in Sprague-Dawley rat at 10 mg/kg, ip measured upto 48 hrs by LC-MS/MS analysis; type: ADME, organism-based; details: in vivo
Answer in min, number only, no unit symbol.

N#Cc1cccc(COc2cc(OCc3cccc(-c4ccccc4F)c3Cl)ccc2CNCC(=O)O)c1 | 49.8

Okay, next one:
Record summary for N#Cc1cncc(COc2cc(OCc3cccc(-c4ccccc4F)c3Cl)ccc2CNCCO)c1 : reported Tmax = 52.8
